Cited source for all entries: ChEMBL document CHEMBL5137043

Tested on: Oryza sativa
Assay: Inhibition of rice alpha-glucosidase assessed as reduction of p-nitrophenol release using p-nitrophenyl-glycoside as substrate at 1000 uM by spectrophotometric analysis
Threshold check on inhibition: at or above 20% gives true, strictly below gives false.

Answered cases to consult:
{"Structure as smiles": "O[C@@H]1[C@@H](O)CN[C@H]1c1ccc(-c2ccccc2)cc1", "Class name": "false"}
{"Structure as smiles": "O[C@H]1[C@H](CCCc2ccccc2)NC[C@@H]1O", "Class name": "true"}
{"Structure as smiles": "O[C@H]1[C@H](O)CN[C@@H]1c1ccc(F)cc1", "Class name": "true"}
{"Structure as smiles": "O[C@@H]1[C@@H](O)CN[C@H]1c1ccc(F)cc1", "Class name": "true"}

Q. Could you please find out whether O[C@H]1[C@H](O)CN[C@@H]1CCCc1ccccc1 has inhibition that meets 20% or exceeds it?
A. true

Q. Could you please find out whether Cc1ccc([C@H]2NC[C@@H](O)[C@@H]2O)cc1 has inhibition that meets 20% or exceeds it?
A. true

Q. Could you please find out whether Cc1ccc([C@@H]2NC[C@H](O)[C@H]2O)cc1 has inhibition that meets 20% or exceeds it?
A. false

Q. Could you please find out whether O[C@H]1[C@H](O)CN[C@@H]1c1ccc(-c2ccccc2)cc1 has inhibition that meets 20% or exceeds it?
A. false

###

Kindly state IC50 for each of the entries shown.
Assay: Inhibition of yeast alpha-glucosidase assessed as reduction of p-nitrophenol release using p-nitrophenyl-glycoside as substrate by spectrophotometric analysis
Parameters: species or system Saccharomyces cerevisiae
Report field: quantity (unit follows the number).

{"Compound": "OC[C@@H]1NCC(O)C1O (single isomer, unassigned)", "IC50": "163 µM"}

Moving on to the next compound.
Q. Item under review: OC[C@H]1NC[C@@H](O)[C@@H]1O . Reported IC50?
A. 2.5 µM

###

Target: Alpha-galactosidase (Coffea arabica)
Test: Inhibition of coffee beans alpha-galactosidase assessed as reduction of p-nitrophenol release using p-nitrophenyl-glycoside as substrate at 1000 uM by spectrophotometric analysis
Threshold check on inhibition: at or above 0.3% gives T, strictly below gives F.

{"Compound": "O[C@H]1[C@H](CCCc2ccccc2)NC[C@@H]1O", "Class name": "F"}
{"Compound": "Cc1ccc([C@H]2NC[C@@H](O)[C@@H]2O)cc1", "Class name": "F"}
{"Compound": "O[C@H]1[C@H](O)CN[C@@H]1CCCc1ccccc1", "Class name": "F"}
{"Compound": "O[C@H]1[C@H](O)CN[C@@H]1c1ccc(F)cc1", "Class name": "T"}
{"Compound": "OC[C@@H]1NCC(O)C1O (single isomer, unassigned)", "Class name": "T"}

Q. Could you please find out whether O[C@@H]1[C@@H](O)CN[C@H]1c1ccccc1 has inhibition that meets 0.3% or exceeds it?
A. T

Q. Could you please find out whether O[C@@H]1[C@@H](O)CN[C@H]1c1ccc(F)cc1 has inhibition that meets 0.3% or exceeds it?
A. T

###

Kindly state inhibition for each of the entries shown.
Biological target: Lysosomal alpha-glucosidase (Rattus norvegicus) (UniProt Q6P7A9)
Sequence (Q6P7A9 whole entry): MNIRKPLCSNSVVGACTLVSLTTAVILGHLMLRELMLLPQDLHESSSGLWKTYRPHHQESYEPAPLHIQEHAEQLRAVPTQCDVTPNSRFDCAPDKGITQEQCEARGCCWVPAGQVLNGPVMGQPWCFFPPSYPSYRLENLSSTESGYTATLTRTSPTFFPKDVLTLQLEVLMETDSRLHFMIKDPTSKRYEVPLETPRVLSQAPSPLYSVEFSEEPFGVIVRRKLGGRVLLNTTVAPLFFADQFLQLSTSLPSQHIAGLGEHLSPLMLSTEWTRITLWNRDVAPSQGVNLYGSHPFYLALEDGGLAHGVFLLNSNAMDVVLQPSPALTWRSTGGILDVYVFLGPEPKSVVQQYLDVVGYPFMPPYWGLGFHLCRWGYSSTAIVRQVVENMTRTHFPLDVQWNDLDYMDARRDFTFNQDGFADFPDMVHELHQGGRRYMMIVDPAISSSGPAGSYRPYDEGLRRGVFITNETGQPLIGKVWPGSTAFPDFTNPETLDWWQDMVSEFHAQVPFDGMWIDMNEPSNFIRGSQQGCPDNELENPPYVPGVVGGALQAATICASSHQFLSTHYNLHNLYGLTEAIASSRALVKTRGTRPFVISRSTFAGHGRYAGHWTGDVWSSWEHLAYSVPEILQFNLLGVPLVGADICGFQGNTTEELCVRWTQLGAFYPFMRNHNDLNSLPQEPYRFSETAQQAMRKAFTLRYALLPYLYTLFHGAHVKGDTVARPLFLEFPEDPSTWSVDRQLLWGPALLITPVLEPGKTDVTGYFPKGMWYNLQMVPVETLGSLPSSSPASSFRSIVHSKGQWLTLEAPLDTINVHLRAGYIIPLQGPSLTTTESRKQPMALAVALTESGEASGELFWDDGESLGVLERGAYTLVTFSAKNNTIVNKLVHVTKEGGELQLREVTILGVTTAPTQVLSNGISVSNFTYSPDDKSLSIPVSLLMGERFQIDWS
Assay: Inhibition of rat small intestinal maltase assessed as reduction of D-glucose release using maltose as substrate at 1000 uM by colorimetric analysis
Assay type: tissue-based
Details: Small intestine
Numbers only, in %.

{"Structure as smiles": "Cc1ccc([C@@H]2NC[C@H](O)[C@H]2O)cc1", "Observation type": "inhibition", "Units symbol": "%", "Assay value": 23.1}
{"Structure as smiles": "O[C@@H]1[C@@H](O)CN[C@H]1c1ccc(-c2ccccc2)cc1", "Observation type": "inhibition", "Units symbol": "%", "Assay value": 28.8}
{"Structure as smiles": "O[C@H]1[C@H](O)CN[C@@H]1c1ccc(-c2ccccc2)cc1", "Observation type": "inhibition", "Units symbol": "%", "Assay value": 15.8}
{"Structure as smiles": "O[C@@H]1[C@@H](O)CN[C@H]1c1ccc(F)cc1", "Observation type": "inhibition", "Units symbol": "%", "Assay value": 25.6}
{"Structure as smiles": "O[C@H]1[C@H](O)CN[C@@H]1c1ccc(F)cc1", "Observation type": "inhibition", "Units symbol": "%", "Assay value": 14}

Respectfully, I request inhibition for each entry included below.
1. O[C@@H]1[C@@H](O)CN[C@H]1c1ccccc1
2. Cc1ccc([C@H]2NC[C@@H](O)[C@@H]2O)cc1
3. O[C@H]1[C@H](O)CN[C@@H]1c1ccccc1

A.
[16.5, 24.6, 12.4]

###

Assay: Inhibition of Penicillium decumbens alpha-L-rhamnosidase assessed as reduction of p-nitrophenol release using p-nitrophenyl-glycoside as substrate by spectrophotometric analysis
Observation type: pIC50
Numbers only, as −log10 of the molar value.

Q. Item under review: O[C@H]1[C@H](CCCc2ccccc2)NC[C@@H]1O . Reported pIC50?
A. 3.88

###

Organism: Sus scrofa
Experiment: Inhibition of porcine kidney alpha-trehalase assessed as reduction of p-nitrophenol release using p-nitrophenyl-glycoside as substrate at 1000 uM by spectrophotometric analysis
Assay type: tissue-based
Threshold check on inhibition: at or above 6% gives Fulfilled, strictly below gives Not fulfilled.

{"Structure as smiles": "O[C@@H]1[C@@H](O)CN[C@H]1c1ccccc1", "Class name": "Not fulfilled"}
{"Structure as smiles": "O[C@@H]1[C@@H](O)CN[C@H]1c1ccc(-c2ccccc2)cc1", "Class name": "Not fulfilled"}

Q. Could you please find out whether O[C@H]1[C@H](O)CN[C@@H]1c1ccc(-c2ccccc2)cc1 has inhibition that meets 6% or exceeds it?
A. Fulfilled

Q. Could you please find out whether Cc1ccc([C@@H]2NC[C@H](O)[C@H]2O)cc1 has inhibition that meets 6% or exceeds it?
A. Fulfilled

Q. Could you please find out whether O[C@H]1[C@H](CCCc2ccccc2)NC[C@@H]1O has inhibition that meets 6% or exceeds it?
A. Not fulfilled

Q. Could you please find out whether Cc1ccc([C@H]2NC[C@@H](O)[C@@H]2O)cc1 has inhibition that meets 6% or exceeds it?
A. Not fulfilled

Q. Could you please find out whether O[C@@H]1[C@@H](O)CN[C@H]1c1ccc(F)cc1 has inhibition that meets 6% or exceeds it?
A. Fulfilled

Q. Could you please find out whether O[C@H]1[C@H](O)CN[C@@H]1CCCc1ccccc1 has inhibition that meets 6% or exceeds it?
A. Not fulfilled

Q. Could you please find out whether O[C@H]1[C@H](O)CN[C@@H]1c1ccc(F)cc1 has inhibition that meets 6% or exceeds it?
A. Not fulfilled

###

Tested on: Saccharomyces cerevisiae
Assay: Inhibition of yeast alpha-glucosidase assessed as reduction of p-nitrophenol release using p-nitrophenyl-glycoside as substrate at 1000 uM by spectrophotometric analysis
Observation type: inhibition (%)
Give bare numbers, in %.

Use these answered entries as a reference point.
{"Structure as smiles": "O[C@H]1[C@H](O)CN[C@@H]1CCCc1ccccc1", "Units symbol": "%", "inhibition": 28.5}
{"Structure as smiles": "Cc1ccc([C@H]2NC[C@@H](O)[C@@H]2O)cc1", "Units symbol": "%", "inhibition": 11}
{"Structure as smiles": "O[C@@H]1[C@@H](O)CN[C@H]1c1ccccc1", "Units symbol": "%", "inhibition": 0.3}

Respectfully, I request inhibition for each entry included below.
1. O[C@H]1[C@H](CCCc2ccccc2)NC[C@@H]1O
2. O[C@@H]1[C@@H](O)CN[C@H]1c1ccc(-c2ccccc2)cc1
3. Cc1ccc([C@@H]2NC[C@H](O)[C@H]2O)cc1
4. O[C@H]1[C@H](O)CN[C@@H]1c1ccc(-c2ccccc2)cc1
5. O[C@@H]1[C@@H](O)CN[C@H]1c1ccc(F)cc1
6. O[C@H]1[C@H](O)CN[C@@H]1c1ccc(F)cc1

A.
1: 30; 2: 4.7; 3: 5.3; 4: 10.1; 5: 8.6; 6: 5.6

Q. Item under review: O[C@H]1[C@H](O)CN[C@@H]1c1ccccc1 . Reported inhibition?
A. 0.3

###

Test: Inhibition of porcine kidney alpha-trehalase assessed as reduction of p-nitrophenol release using p-nitrophenyl-glycoside as substrate by spectrophotometric analysis
Assay type: tissue-based, Sus scrofa
Kindly state IC50 for each of the entries shown.
Give bare numbers, in µM.

{"Molecule": "OC[C@@H]1NCC(O)C1O (single isomer, unassigned)", "Observation type": "IC50", "Assay value": 161}

Moving on to the next molecule.
Q. Item under review: OC[C@H]1NC[C@@H](O)[C@@H]1O . Reported IC50?
A. 11

###

Test system: Helix pomatia
Test: Inhibition of snail beta-mannosidase assessed as reduction of p-nitrophenol release using p-nitrophenyl-glycoside as substrate at 1000 uM by spectrophotometric analysis
Observation type: inhibition (%)
Answers are plain numbers, in %.

{"Compound": "O[C@H]1[C@H](O)CN[C@@H]1c1ccccc1", "System tested": "Helix pomatia", "Units symbol": "%", "inhibition": 10.1}

Respectfully, I request inhibition for each entry included below.
1. O[C@@H]1[C@@H](O)CN[C@H]1c1ccccc1
2. OC[C@H]1NC[C@@H](O)[C@@H]1O
3. Cc1ccc([C@@H]2NC[C@H](O)[C@H]2O)cc1
4. OC[C@@H]1NCC(O)C1O (single isomer, unassigned)

A.
1.1
13
2.2
0.5

Q. Item under review: Cc1ccc([C@H]2NC[C@@H](O)[C@@H]2O)cc1 . Reported inhibition?
A. 1.9
